Reported Ki values follow for various compounds
# assay target: 5-hydroxytryptamine receptor 7 (Homo sapiens, UniProt P34969)
# Sequence (P34969 whole entry): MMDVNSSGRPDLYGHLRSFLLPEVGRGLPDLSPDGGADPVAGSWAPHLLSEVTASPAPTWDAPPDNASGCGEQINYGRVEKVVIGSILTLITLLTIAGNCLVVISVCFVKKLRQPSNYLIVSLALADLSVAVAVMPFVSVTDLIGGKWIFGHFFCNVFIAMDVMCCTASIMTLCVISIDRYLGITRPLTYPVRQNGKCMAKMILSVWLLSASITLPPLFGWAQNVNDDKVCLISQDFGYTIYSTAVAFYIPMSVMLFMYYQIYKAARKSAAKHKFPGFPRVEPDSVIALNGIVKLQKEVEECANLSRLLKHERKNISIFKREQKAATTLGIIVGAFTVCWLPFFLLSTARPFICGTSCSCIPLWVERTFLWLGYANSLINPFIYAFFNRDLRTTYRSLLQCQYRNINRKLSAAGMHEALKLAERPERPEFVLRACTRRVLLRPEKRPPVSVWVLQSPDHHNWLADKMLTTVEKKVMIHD
# experiment description: Binding affinity towards human recombinant 5-hydroxytryptamine 7 receptor using [3H]5-CT as radioligand
measurement kind: Ki

>>> observed_result("O=C1Nc2cccc3c2C1(CCCCN1CCC(c2ccccc2)CC1)CCC3 (configuration not stated)")
"2 nM"
>>> observed_result("O=C1Nc2cccc3c2C1(CCN1CCN(c2ccccc2)CC1)CCC3 (configuration not stated)")
"100 nM"
>>> observed_result("O=C1Nc2cccc3c2C1(CCCN1CCN(c2ccccc2)CC1)CCC3 (configuration not stated)")
"5.01 nM"
>>> observed_result("O=C1Nc2cccc3c2C1(CCCCN1CCN(c2ccccc2)CC1)CCC3 (configuration not stated)")
"3.16 nM"
>>> observed_result("O=C1Nc2cccc3c2C1(CCCCN1CCN(c2ccccn2)CC1)CCC3 (configuration not stated)")
"2 nM"
>>> observed_result("N#Cc1ccccc1N1CCN(CCCCC23CCCc4cccc(c42)NC3=O)CC1 (configuration not stated)")
"3.98 nM"
>>> observed_result("COc1ccccc1N1CCN(CCCCC23CCCc4cccc(c42)NC3=O)CC1 (configuration not stated)")
"5.01 nM"

====

# assay target: 5-hydroxytryptamine receptor 7 (Rattus norvegicus, UniProt P32305)
# Sequence (P32305 whole entry): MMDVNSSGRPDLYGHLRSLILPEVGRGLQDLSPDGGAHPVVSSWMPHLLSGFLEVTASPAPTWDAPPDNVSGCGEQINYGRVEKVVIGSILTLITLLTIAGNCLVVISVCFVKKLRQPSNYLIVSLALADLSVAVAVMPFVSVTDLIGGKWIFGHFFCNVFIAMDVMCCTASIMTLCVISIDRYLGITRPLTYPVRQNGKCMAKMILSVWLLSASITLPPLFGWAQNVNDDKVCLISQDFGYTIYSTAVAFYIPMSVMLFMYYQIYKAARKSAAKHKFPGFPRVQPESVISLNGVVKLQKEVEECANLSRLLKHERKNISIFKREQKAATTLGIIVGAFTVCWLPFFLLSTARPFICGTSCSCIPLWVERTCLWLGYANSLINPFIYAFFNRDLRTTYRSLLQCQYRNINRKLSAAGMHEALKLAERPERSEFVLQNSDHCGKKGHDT
# experiment description: Binding affinity towards 5-hydroxytryptamine 7 receptor
pKi: −log10 of the molar value.
A collection of molecules and their measured pKi
measurement kind: pKi

>>> observed_result("CN1C[C@H](CNC(=O)OCc2ccccc2)C[C@@H]2c3cccc4c3c(cn4C)C[C@H]21 [METERGOLINE]")
8.20
>>> observed_result("Cc1nc2sccn2c(=O)c1CCN1CCC(=C(c2ccc(F)cc2)c2ccc(F)cc2)CC1 [RITANSERIN]")
7.80
>>> observed_result("CCN(CC)C(=O)[C@@H]1C=C2c3cccc4[nH]c(Br)c(c34)C[C@H]2N(C)C1")
8.00
>>> observed_result("Cc1cccc(S(=O)(=O)N2CCC[C@@H]2CCN2CCC(C)CC2)c1 [SB-258741]")
8.50
